- Test system: SR
- Test details: NCI tumour cell line growth inhibition, 48 h
Activity calls are given as the source filed them. No stated cut-off is given here; in the data, active = GI50 up to about 1.1 µM and inactive = higher.
Quantity name: GI50

Before answering, review these 7 worked examples.
1) COc1cc([C@@H]2Oc3cc4oc(-c5ccccc5)cc(=O)c4c(O)c3O[C@H]2OC)ccc1O; 4.14 µM (inactive)
2) Cn1c(=O)c2c(ncn2Cc2ccc(O)c([N+](=O)[O-])c2)n(C)c1=O; > 100 µM (inactive)
3) Cc1c(-c2ccccc2)[nH]n(C2=NCCN2)c1=O; > 100 µM (inactive)
4) COc1ccc(CCc2ccccc2CC(=O)O)cc1; > 100 µM (inactive)
5) CC(=O)c1cccc(C)c1C(=O)O; > 100 µM (inactive)
6) CCOP(=O)(O)CN1CCNCCN(CP(=O)(O)OCC)CCNCC1; > 10 µM (inactive)
7) O=C1Nc2ccccc2/C1=N/Nc1ccccc1Cl; 7.62 µM (inactive)

Let us move to another entry and its GI50.
Entry CC(=O)OCC1OC(n2cc(F)c(=O)[nH]c2=O)C(OC(C)=O)C1OC(C)=O (stereo not drawn) , GI50 reported as 6.73 µM (inactive)

* * *

- Tested on: SN12C
- Test details: NCI tumour cell line growth inhibition, 48 h
Active and inactive are the calls of the source. Cut-off read from the data, not from the text of the source: active = GI50 up to about 1.1 µM and inactive = higher.
Quantity name: GI50

1) CCCN1CN(C(C(=O)N[C@@H]2C(=O)N3C(C(=O)O)=C(C)CSC23)c2ccccc2)CSC1=S (some centres undefined); > 100 µM (inactive)
2) COc1cc2ccc(C(=O)O)cc2cc1OC; > 100 µM (inactive)
3) O=C1OC2C(O)COC2(O)C1(O)Cc1c[nH]c2ccccc12.O=C1OC2C(O)COC2(OCc2c[nH]c3ccccc23)C1O (centres undefined); > 100 µM (inactive)

The compound CC1CC[C@@]2(OC1)OC1C[C@H]3[C@@H]4CC[C@H]5CC(OC6OC(CO)C(OC7OC(CO)C(O)C(O)C7O)C(O)C6O)CCC5(C)[C@H]4CCC3(C)C1[C@@H]2C (some centres undefined) , tested on SN12C, showed GI50 of 7.35 µM (inactive)

* * *

- Tested on: SK-OV-3
- Test details: NCI tumour cell line growth inhibition, 48 h
The source made the active and inactive calls. No stated cut-off is given here; in the data, active = GI50 up to about 1.1 µM and inactive = higher.
API: response.call in t for active, f for inactive

1. COc1cc2ccc(C(=O)O)cc2cc1OC; f
2. C=C(CN(C)C)C(=O)c1ccccc1OC; f
3. COC1C2c3cc4c(cc3CC(C#N)(c3ccccc32)N1C(=O)c1ccccc1)OCO4 (stereo not given); f
4. O=c1[nH]c(NCc2cccnc2)nc2[nH]cnc12; f
5. COc1ccc(/C=C2\N/C(=N/N)N=C2Cl)cc1; f

For this compound, state the assay outcome: CC(=O)OC(C)(C)CCC(=O)[C@](C)(O)[C@H]1[C@H](O)C[C@@]2(C)[C@@H]3CC=C4C(C)=C(OC5OC(CO)C(O)C(O)C5O)C(=O)C[C@@H]4[C@]3(C)C(=O)C[C@]12C (stereo not given in full)
f

Could you please tell me the result logged for COc1ccc(C2COc3c(ccc(O)c3C)C2)cc1OC (stereo not given) in this assay?
f

Identify the outcome logged in this assay for the compound shown: CC(C)/C(Cl)=N\OC(=O)Nc1cccc(Cl)c1
f

Please let me know the test result on file for NNc1nnc(-c2ccccc2)nc1Cc1ccccc1 .
f

Which result was noted for this compound in the test: C/C(=N\NC(=S)N1CCN(C2CCCCCC2)CC1)c1ccccn1
t

* * *

- Tested on: LOX IMVI
- Test details: NCI tumour cell line growth inhibition, 48 h
Active and inactive are the calls of the source. Rule as the data show it: active = GI50 up to about 1.1 µM and inactive = higher.
Write down one outcome, taken from class 1 = active, class 0 = inactive

1) CCOC(=O)C(=O)Nc1ccccc1C; class 0
2) NC(CCCCCP(=O)(O)O)C(=O)O (stereo not drawn); class 0
3) Nc1ccc2c(=O)cc(-c3cccs3)[nH]c2n1; class 1
4) CC(C)C(C/C=C1\CC(CO)(COC(=O)c2ccccc2)OC1=O)C(C)C (stereo not drawn); class 0
5) COC(=O)NC12CC3CC(CC(F)(C3)C1)C2; class 0

Dear colleague, could you share the recorded outcome for CCCCCCCCCCCCCP(=O)(NCC(N)=O)OCC (stereo not drawn) when you have a moment?
class 0

Record lookup: outcome of this test for COc1cc(/C=C(\C)c2ccc3c(c2)OCO3)cc(OC)c1OC ?
class 0

Test call, this molecule: C=C1C(=O)O[C@@H]2OC3(C)CCC4C(C)CCC1C42OO3 (stereo partly drawn)
class 0

Entry CN(C)Cc1cc(C(=O)/C=C/c2ccc(Cl)cc2Cl)cc(CN(C)C)c1O : call = ?
class 0

How was O=C1Cc2ccccc2N1/N=C\c1ccc([N+](=O)[O-])cc1 classified in this test?
class 0

* * *

- System: HT-29
- Test details: NCI tumour cell line growth inhibition, 48 h
Active and inactive are the calls of the source. Cut-off read from the data, not from the text of the source: active = GI50 up to about 1.1 µM and inactive = higher.
Listing of entries alongside the reported GI50.

1) CC(=O)OCC1OC(n2c(-c3ccc(Cl)cc3)ccc(C#N)c2=S)C(OC(C)=O)C(OC(C)=O)C1OC(C)=O (stereo unspecified); > 100 µM (inactive)
2) CCc1cccc(C)c1NC(=O)CC1C(=O)Nc2ccccc2S1(=O)=O (stereo unspecified); 19.7 µM (inactive)
3) OC12c3ccccc3C1CCCCCCCCCC21OCCO1 (stereo unspecified); > 100 µM (inactive)
4) Cc1cc(NN)nc2[nH]nc(N)c12; > 100 µM (inactive)

Consider Clc1c(C(Cl)(Cl)Cl)nsc1N1CCCCC1 . Its measured GI50 is 16 µM (inactive)

// recorded GI50 for CC(C)(C)Sc1nnc(SC(C)(C)C)c2c(SC(C)(C)C)nnc(O)c12 : 6.03 µM (inactive)

Reported GI50 ( CCC(C)CC(C)CC(C)/C=C(\C)C1=C(C)CC(C)(O)O1 (stereo unspecified) ) = 93.8 µM (inactive)

Short answer for Cc1ccc(C2OC(COCc3ccc(Cl)cc3)C(OCc3ccc(Cl)cc3)C2O)cc1 (stereo unspecified) : GI50 was 7.69 µM (inactive)

Given item Cn1c(=O)c2c(nc(C[N+]3([O-])CCOCC3)n2C)n(C)c1=O , the value recorded as its GI50 is > 100 µM (inactive)

# GI50 of CN(C)c1ccc(/C=C(\C#N)C(N)=C(C#N)C#N)cc1 = > 100 µM (inactive)

The compound listed as CC(=O)OC1(C#N)CC2OC1C1C2N=NN1C(=O)OC(C)(C)C (stereo unspecified) shows GI50 equal to 39.4 µM (inactive)

* * *

- Tested on: SNB-75
- Test details: NCI tumour cell line growth inhibition, 48 h
Calls of active or inactive are those of the source. Rule as the data show it: active = GI50 up to about 1.1 µM and inactive = higher.
Could you please pick one outcome from this set? Y (active), N (inactive)

1) CC(C)c1cccc(C(C)C)c1NC(=O)CCC(=O)NN; N
2) C/C(=N\NC(=O)c1ccncc1)c1ccccc1Cl; N
3) Cn1c(=O)n(C2(C)C[Se]C2)c2ccccc21; N

Continue with the next compound.
Recorded call for CCOC(=O)Cn1c(=O)c2nc(SC)sc2n(-c2ccccc2)c1=S ?
N

* * *

- Test system: U-251
- Test details: NCI tumour cell line growth inhibition, 48 h
Active and inactive are the calls of the source. Cut-off read from the data, not from the text of the source: active = GI50 up to about 1.1 µM and inactive = higher.
Response enum: active, inactive

Sample answers from the record:
1. CCOC(=O)C(C)(C)Oc1ccc2c(-c3ccc(Cl)cc3)cc(=O)oc2c1; inactive
2. CCC(CCCCC1CC[C@H]2CC(=O)C[C@@H]12)OC (some centres not stated); inactive
3. CC1(C)Cc2c(oc3ncnc(N)c23)CS1; inactive
4. CCN(CC)CCNc1n[n+]([O-])c2ccccc2[n+]1[O-]; inactive
5. CC(=O)O[C@H]1[C@@H](OC2CCCC2(c2ccccc2)c2ccccc2)O[N+]([O-])=C[C@@H]1c1ccccc1 (some centres not stated); inactive
6. O=C(NCCCCNCCCNC(=O)C(F)(F)F)C(F)(F)F; inactive
7. COc1c(C(=O)/C(=N/Nc2cccc(Cl)c2)C(C)=O)c(O)c(OC)c2occc12; inactive
8. CCN(CC)C(=O)CCN1CC1; inactive
9. O=c1[nH]nc(Cc2ccccc2)n1O; inactive
10. CCOc1ccccc1-c1nc2c(s1)C(=O)c1ccccc1C2=O; inactive

In this assay, the call recorded for Cn1c2ccccc2n2c(=O)c3c(c(C#N)c12)CCCC3 was what?
inactive

Record request — test call for CCC1=C(CC)C1(C#N)[N+](=O)[O-]
inactive

Answer briefly: the call reported for Cn1c2c(c3ccccc31)CCN(CCCCN1CCN(c3ccccc3)CC1)C2=O in this assay.
inactive

Which result was noted for this molecule in the test: O=C1/C(=C/c2ccccc2)CN(C(=O)Oc2ccccc2)C/C1=C\c1ccccc1
inactive

Check the results log: what was the call for CCOC(=O)C1C(=O)C=C(c2cc(C)ccc2O)CC1c1cccc(Cl)c1 (configuration not stated) ?
inactive

// param item: COC(O)C(=O)c1c2c(cc3c1CCC3)CCCC2 (configuration not stated) ; yields the recorded call
inactive

Please share the test call associated with COC(=O)CCC(NC(=S)N/N=C(\C)c1cccs1)C(=O)OC (configuration not stated) .
inactive

# fetch the recorded call for C/C(=N\NC(=S)N1CCN(C2CCCCCC2)CC1)c1ccccn1 here
active

Dear all, I need the recorded test outcome for NS(=O)(=O)c1ccc(-n2c(-c3cccs3)nc3ccc(I)cc3c2=O)cc1 , thank you.
inactive

Outcome logged for CCOC(=O)C1=C(C)N(Cc2ccccc2)C(=O)C1CC#N (configuration not stated) in this assay:
inactive

Please let me know the test result on file for O=C(OCc1ccccc1)N1CCCc2c(n(S(=O)(=O)c3ccccc3)c3ccccc23)C1 .
inactive

Dear colleague, could you share the recorded outcome for O=C(O)CSc1nnc(CCCCCCCCc2nnc(SCC(=O)O)o2)o1 when you have a moment?
inactive
